Assignment: determine reported EC50 for the given molecules.
# assay explanation: alpha-synuclein stem-loop luciferase translation blockers – H4 neuroglioma cells, luminescence, confirmation (AID 1988)
# Type: functional, cell-based
Activity calls are given as the source filed them.

Recorded EC50, per entry:
molecule=c1ccc(-c2cn3nc(-c4ccccc4)sc3n2)cc1 measured_metric=EC50 assay_value="0.402 µM (inconclusive)"
molecule="Cc1cc(C)n(CC(C)NC(=O)c2cc(COc3c(F)cccc3F)on2)n1 (stereo not given)" measured_metric=EC50 assay_value="> 120 µM (not active)"

Could I get EC50 for every one of these entries?
1. O=C(CN1C(=O)C2CCCCC2C1=O)Nc1nc(-c2ccccn2)cs1 (stereo not given)
2. CN1Cc2cc(C(=O)c3cc(Cl)cc(CSc4ncccn4)c3O)cnc2NC1=O
3. COc1ccc(Nc2nc(N)c([N+](=O)[O-])c(NC3CCCCC3)n2)cc1

Solution:
1. > 120 µM (not active)
2. < 0.1 µM (active)
3. 17.2 µM (active)

* * *

# subject of test: Fatty acid synthase (Homo sapiens)
# Sequence (P49327 whole entry): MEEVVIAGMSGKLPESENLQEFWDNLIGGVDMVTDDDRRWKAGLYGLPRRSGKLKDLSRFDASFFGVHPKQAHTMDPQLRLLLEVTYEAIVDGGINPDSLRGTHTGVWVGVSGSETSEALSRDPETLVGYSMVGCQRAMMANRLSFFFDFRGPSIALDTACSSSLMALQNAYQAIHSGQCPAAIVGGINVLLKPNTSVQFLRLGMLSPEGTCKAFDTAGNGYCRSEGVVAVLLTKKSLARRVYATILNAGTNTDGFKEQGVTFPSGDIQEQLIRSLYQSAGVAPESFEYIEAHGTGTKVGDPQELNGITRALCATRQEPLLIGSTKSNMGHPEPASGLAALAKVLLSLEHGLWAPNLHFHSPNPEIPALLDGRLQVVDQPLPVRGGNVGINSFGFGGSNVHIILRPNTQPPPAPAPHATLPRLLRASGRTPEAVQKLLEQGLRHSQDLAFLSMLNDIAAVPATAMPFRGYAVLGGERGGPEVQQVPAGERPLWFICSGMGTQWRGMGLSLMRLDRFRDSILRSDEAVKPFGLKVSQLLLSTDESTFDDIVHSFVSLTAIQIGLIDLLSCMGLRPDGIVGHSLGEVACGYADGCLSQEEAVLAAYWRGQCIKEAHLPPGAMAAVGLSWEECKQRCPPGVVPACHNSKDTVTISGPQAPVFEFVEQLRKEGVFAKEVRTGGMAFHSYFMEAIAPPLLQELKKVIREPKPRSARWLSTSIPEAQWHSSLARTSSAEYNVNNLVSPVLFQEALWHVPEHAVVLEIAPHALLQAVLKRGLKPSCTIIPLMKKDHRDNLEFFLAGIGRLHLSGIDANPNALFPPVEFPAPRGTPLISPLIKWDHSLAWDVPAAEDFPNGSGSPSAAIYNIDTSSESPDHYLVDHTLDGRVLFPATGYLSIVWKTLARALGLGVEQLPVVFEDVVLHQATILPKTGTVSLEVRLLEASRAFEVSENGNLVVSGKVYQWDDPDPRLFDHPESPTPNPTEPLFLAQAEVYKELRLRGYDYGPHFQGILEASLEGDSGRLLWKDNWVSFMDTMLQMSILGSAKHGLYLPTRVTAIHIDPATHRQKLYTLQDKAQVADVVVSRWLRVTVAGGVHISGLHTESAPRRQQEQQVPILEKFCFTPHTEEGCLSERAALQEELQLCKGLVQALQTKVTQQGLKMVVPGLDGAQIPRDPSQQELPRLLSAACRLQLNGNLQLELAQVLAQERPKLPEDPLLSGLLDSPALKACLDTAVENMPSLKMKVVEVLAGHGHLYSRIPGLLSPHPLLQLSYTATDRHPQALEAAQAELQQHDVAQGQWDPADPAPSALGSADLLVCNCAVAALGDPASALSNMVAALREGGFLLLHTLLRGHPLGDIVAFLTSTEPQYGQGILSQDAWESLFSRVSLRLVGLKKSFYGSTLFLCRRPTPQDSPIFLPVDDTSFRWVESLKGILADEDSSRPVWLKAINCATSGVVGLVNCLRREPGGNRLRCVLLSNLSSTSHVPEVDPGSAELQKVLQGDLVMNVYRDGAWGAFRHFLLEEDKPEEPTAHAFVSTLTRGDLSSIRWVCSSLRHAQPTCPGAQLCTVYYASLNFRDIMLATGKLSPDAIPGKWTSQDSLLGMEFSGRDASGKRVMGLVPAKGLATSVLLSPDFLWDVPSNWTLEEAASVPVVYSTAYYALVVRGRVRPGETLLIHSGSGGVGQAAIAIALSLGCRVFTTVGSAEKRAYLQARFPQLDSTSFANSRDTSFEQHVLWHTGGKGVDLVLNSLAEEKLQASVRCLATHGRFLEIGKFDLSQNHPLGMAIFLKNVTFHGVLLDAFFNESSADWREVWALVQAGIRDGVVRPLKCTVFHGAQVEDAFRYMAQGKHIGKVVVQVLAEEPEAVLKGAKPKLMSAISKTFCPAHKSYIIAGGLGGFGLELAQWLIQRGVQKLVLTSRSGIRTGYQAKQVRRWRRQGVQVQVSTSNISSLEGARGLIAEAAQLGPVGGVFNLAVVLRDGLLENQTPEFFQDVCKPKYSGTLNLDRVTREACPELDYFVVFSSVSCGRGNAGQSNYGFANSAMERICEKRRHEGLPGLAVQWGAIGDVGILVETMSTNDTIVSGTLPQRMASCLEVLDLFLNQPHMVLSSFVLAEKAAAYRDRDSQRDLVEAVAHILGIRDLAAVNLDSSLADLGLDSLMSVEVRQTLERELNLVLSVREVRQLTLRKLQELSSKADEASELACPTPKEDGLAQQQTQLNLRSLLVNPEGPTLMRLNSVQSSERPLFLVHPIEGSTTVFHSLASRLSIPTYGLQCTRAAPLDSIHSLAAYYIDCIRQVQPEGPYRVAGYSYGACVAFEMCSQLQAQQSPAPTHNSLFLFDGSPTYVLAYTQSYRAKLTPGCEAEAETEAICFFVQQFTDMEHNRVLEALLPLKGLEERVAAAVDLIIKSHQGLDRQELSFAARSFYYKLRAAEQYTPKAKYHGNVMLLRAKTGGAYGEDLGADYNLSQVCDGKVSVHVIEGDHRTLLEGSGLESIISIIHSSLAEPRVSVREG
# assay explanation: inhibition of human FAS-TE enzyme activity – biochemical, kinetic fluorescence intensity, dose response (AID 624326);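 also: rate of fluorescence rise from hydrolysis of a fluorogenic O-methyl fluorescein ester substrate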
# Assay type: functional
The source made the active and inactive calls.
measured metric: IC50

Recorded IC50, per entry:
molecule=O=C(c1cc2cc3ccc(Cl)cc3nc2o1)N1CCCCCC1 measured_metric=IC50 assay_value="15.6 µM (active)"
molecule=Cc1c(C)c2ccc(OCC(=O)N3CCN(c4ccccc4)CC3)cc2oc1=O measured_metric=IC50 assay_value="6.95 µM (active)"
molecule=Cc1noc(C)c1NC(=O)Nc1cccc2c1O[C@H](CN(C)C(=O)Nc1ccccc1)[C@@H](C)CN([C@H](C)CO)C2=O measured_metric=IC50 assay_value="9.53 µM (active)"
molecule=NC(=S)N/N=C/c1ccc(-c2ccc(SC(F)F)cc2)o1 measured_metric=IC50 assay_value="80 µM (inactive)"
molecule=CCN(CC)S(=O)(=O)c1ccc(N2CCc3ccccc3C2)nc1 measured_metric=IC50 assay_value="9.71 µM (active)"
molecule=O=C(/C=C/c1cccc([N+](=O)[O-])c1)NCCc1ccc(F)cc1 measured_metric=IC50 assay_value="11.8 µM (active)"
molecule="O=C(CC1C[C@H](C(=O)N2CCOCC2)[C@@]2(CCC3CCCC3)c3[nH]c4ccccc4c3CCN2C1=O)NCCN1CCOCC1 (some centres not stated)" measured_metric=IC50 assay_value="2.17 µM (active)"
molecule=Cc1cc(C)c(Cn2cnc(-c3ccc([N+](=O)[O-])cc3)c2)c(C)c1 measured_metric=IC50 assay_value="12.6 µM (active)"

Could I get IC50 for every one of these entries?
1. Cc1coc(NC(=O)CSc2nc(-c3ccncc3)cc(C(F)(F)F)c2C#N)n1
2. Cc1ccn2c(=O)nc(SCC(=O)N3N=C(c4cccs4)CC3c3ccc(F)cc3)nc2c1 (configuration not stated)
3. Fc1ccc(-n2c(Cc3ccccc3)nnc2SCc2nc(-c3ccc(Cl)cc3)no2)cc1
4. O=C(COC(=O)c1cccc([N+](=O)[O-])c1)NC1CCCC1

Solution:
1: 14.8 µM (active); 2: 10.3 µM (active); 3: 8.88 µM (active); 4: 8.78 µM (active)

* * *

# subject of test: Apoptotic protease-activating factor 1 (Homo sapiens)
# Sequence (O14727 whole entry): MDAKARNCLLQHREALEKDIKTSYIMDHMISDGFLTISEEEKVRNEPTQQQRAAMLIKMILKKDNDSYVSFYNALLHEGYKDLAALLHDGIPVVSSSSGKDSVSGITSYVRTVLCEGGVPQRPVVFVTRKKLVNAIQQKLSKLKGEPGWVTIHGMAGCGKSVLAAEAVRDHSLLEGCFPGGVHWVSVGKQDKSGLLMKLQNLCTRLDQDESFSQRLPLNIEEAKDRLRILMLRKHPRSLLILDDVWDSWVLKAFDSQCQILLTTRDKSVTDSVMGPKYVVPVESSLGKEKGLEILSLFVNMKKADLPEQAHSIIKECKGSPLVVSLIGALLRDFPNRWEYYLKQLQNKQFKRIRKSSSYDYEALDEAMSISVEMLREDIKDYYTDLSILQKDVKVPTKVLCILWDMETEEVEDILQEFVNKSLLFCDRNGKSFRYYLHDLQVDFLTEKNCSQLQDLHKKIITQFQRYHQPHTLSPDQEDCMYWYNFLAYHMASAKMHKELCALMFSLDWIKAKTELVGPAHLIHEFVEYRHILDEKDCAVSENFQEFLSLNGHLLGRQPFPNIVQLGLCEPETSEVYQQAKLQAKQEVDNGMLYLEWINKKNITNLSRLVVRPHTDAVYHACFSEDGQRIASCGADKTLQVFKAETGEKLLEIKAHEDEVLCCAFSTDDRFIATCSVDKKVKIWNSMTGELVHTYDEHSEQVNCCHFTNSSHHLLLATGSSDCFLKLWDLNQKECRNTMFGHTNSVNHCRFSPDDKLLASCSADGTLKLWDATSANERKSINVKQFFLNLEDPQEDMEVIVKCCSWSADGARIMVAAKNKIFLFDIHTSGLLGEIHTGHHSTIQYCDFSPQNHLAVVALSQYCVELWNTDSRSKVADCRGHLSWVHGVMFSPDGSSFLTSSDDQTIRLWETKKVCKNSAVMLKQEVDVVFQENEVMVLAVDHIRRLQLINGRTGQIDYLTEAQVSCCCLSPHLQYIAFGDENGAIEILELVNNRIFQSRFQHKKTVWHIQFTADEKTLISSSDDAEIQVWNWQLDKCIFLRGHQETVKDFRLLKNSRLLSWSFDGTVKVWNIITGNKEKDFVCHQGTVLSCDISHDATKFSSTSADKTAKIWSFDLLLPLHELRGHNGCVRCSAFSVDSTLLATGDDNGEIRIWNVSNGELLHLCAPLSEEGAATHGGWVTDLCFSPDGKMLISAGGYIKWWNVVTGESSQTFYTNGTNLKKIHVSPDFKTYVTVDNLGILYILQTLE
# Assay type: functional
The source made the active and inactive calls.
measured metric: IC50

molecule=c1cc2c3c(cccc3c1)NC1(CCCCCC1)N2 assay_value="6.58 µM (active)"
molecule="CN(CC(=O)Nc1ccc(Cl)c(C(F)(F)F)c1)C(=O)CC1Sc2ccccc2NC1=O (stereo not given)" assay_value="33.6 µM (active)"
molecule=COc1ccc(CNC(=O)c2c(C)oc3c2C(=O)c2ccccc2C3=O)cc1 assay_value="23.1 µM (active)"
molecule="Cc1[nH]n(-c2ccccc2)c(=O)c1C(C[N+](=O)[O-])c1ccc(Br)cc1 (stereo not given)" assay_value="4.17 µM (active)"

Moving on to another molecule below.
Exercise: Return the recorded IC50 value; entry: COc1ccc2c(c1)Cc1sc(NC(=O)c3cccs3)nc1-2
Solution: 28.7 µM (active)

Provenance of the data: ChEMBL document CHEMBL1201862
